# System: rodent lifetime carcinogenesis bioassay, tumor incidence TD50
# experiment: carcinogenic potency in animals, long-term in vivo studies, CPDB compilation (AID 1745844)
# test-context: mouse; strain (C57 x IF)F1; males; in feed; site: urinary bladder; lesion: carcinoma; dosed 52 weeks; study length 67 weeks
observed-property: TD50

Please fill in: TD50 reported for Nc1ccc2oc3ccccc3c2c1 = 22.3 mg/kg/day

----------
# Tested on: rodent lifetime carcinogenesis bioassay, tumor incidence TD50
# experiment: carcinogenic potency in animals, long-term in vivo studies, CPDB compilation (AID 1745844)
# test-context: mouse; strain B6C3F1; females; in feed; site: liver; lesion: hepatocellular carcinoma; dosed 80 weeks; study length 90 weeks
observed-property: TD50

Please fill in: TD50 reported for C=C1C(CCl)(CCl)C2(Cl)C(Cl)C(Cl)C1(Cl)C2(Cl)Cl (centres undefined) = 273 mg/kg/day

Please fill in: TD50 reported for Cc1c([N+](=O)[O-])c(C)c([N+](=O)[O-])c(C(C)(C)C)c1[N+](=O)[O-] = 2190 mg/kg/day

Please fill in: TD50 reported for ClC1=C(Cl)C2(Cl)C3C(Cl)C(Cl)CC3C1(Cl)C2(Cl)Cl (centres undefined) = 4.89 mg/kg/day

Please fill in: TD50 reported for O=C1C2(Cl)C3(Cl)C4(Cl)C(Cl)(Cl)C5(Cl)C3(Cl)C1(Cl)C5(Cl)C24Cl (centres undefined) = 1.62 mg/kg/day
